# Kd per record follows
assay.system: BRD4 bromodomains (Homo sapiens)
Construct: fused on or other part: T7 phage capsid protein (fusion for phage display)
test.summary: BROMOscan bromodomain binding assay
condition.context: Kd classes; BRD4 bromodomains displayed on T7 phage, competition with acetylated peptide ligand, 11 concentrations 0 to 10 μM; read-out: BROMOscan Relative Activity

compound	Kd
Cc1noc(C)c1-c1cc2c(NCc3ccccc3)cc(=O)[nH]c2cc1C(=O)N(C)C [Example 160]	< 100 nM
COc1cncc(-c2ccc3[nH]c(=O)cc(NCc4cccc(Cl)c4)c3c2)c1 [Example 164]	< 100 nM
Cc1noc(C)c1-c1ccc2[nH]c(=O)cc(NCc3cccc(Cl)c3)c2c1 [Example 108]	< 100 nM
COc1ncccc1-c1ccc2[nH]c(=O)cc(NCc3cccc(Cl)c3)c2c1 [Example 165]	> 1000 nM
Cc1noc(C)c1-c1ccc2[nH]c(=O)cc(NCc3ccc(-c4ccccc4)cc3)c2c1 [Example 140]	100 to 1000 nM
COc1cccc(CNc2cc(=O)[nH]c3ccc(-c4c(C)noc4C)cc23)c1 [Example 116]	< 100 nM
Cc1noc(C)c1-c1cc2[nH]c(=O)c(C)c(NNc3ccccc3Cl)c2cc1-c1c(C)noc1C [Example 60]	< 100 nM
CC(=O)N(Nc1cc(=O)[nH]c2ccc(-c3c(C)noc3C)cc12)c1ccccc1 [Example 7]	< 100 nM

###

assay.system: BRD4 bromodomains (Homo sapiens)
Construct: fused on or other part: T7 phage capsid protein (fusion for phage display)
test.summary: BROMOscan bromodomain binding assay
condition.context: Kd classes; BRD4 bromodomains displayed on T7 phage, competition with acetylated peptide ligand, 11 concentrations 0 to 10 μM; read-out: BROMOscan Relative Activity
Entries and their measured Kd follow.
measured.property: Kd

1) Cc1noc(C)c1-c1ccc2[nH]c(=O)cc(NCc3cc(Cl)cc(Cl)c3)c2c1 0.1 to 1 µM
2) COc1ccccc1CNc1cc(=O)[nH]c2ccc(-c3c(C)noc3C)cc12 < 0.1 µM
3) Cc1noc(C)c1-c1ccc2[nH]c(=O)cc(NN3CCc4ccccc4C3)c2c1 < 0.1 µM
4) Cc1noc(C)c1-c1ccc2[nH]c(=O)cc(NCc3ccc(Cl)cc3)c2c1 0.1 to 1 µM
5) Cc1noc(C)c1-c1ccc2[nH]c(=O)cc(NCc3cccc(C(F)(F)F)c3)c2c1 0.1 to 1 µM
6) Cc1noc(C)c1-c1ccc2[nH]c(=O)cc(N[C@H](C)c3ccccc3)c2c1 < 0.1 µM
7) Cc1noc(C)c1-c1ccc2[nH]c(=O)cc(NCC3CCCCC3)c2c1 0.1 to 1 µM
8) Cc1noc(C)c1-c1ccc2[nH]c(=O)cc(NCc3ccccc3F)c2c1 < 0.1 µM
9) Cc1noc(C)c1-c1ccc2[nH]c(=O)cc(NN(C)c3ccccc3)c2c1 < 0.1 µM
10) Cc1noc(C)c1-c1cc2c(NCc3ccccc3)cc(=O)[nH]c2cc1C(N)=O < 0.1 µM
11) Cc1noc(C)c1-c1ccc2[nH]c(=O)cc(NCc3cccc(Br)c3)c2c1 < 0.1 µM
12) Cc1noc(C)c1-c1ccc2[nH]c(=O)cc(NCc3cccnc3)c2c1 0.1 to 1 µM
13) O=c1cc(NCc2cccc(Cl)c2)c2cc(-c3cccnc3)ccc2[nH]1 < 0.1 µM
14) O=c1cc(NCc2cccc(Cl)c2)c2cc(-c3ccncc3)ccc2[nH]1 < 0.1 µM
15) Cc1noc(C)c1-c1cc2[nH]c(=O)cc(NCc3ccccc3)c2cc1-c1c(C)noc1C < 0.1 µM
16) Cc1noc(C)c1-c1ccc2[nH]c(=O)cc(NCc3ccc(Cl)cc3Cl)c2c1 0.1 to 1 µM
17) Cc1noc(C)c1-c1ccc2[nH]c(=O)cc(NN(CC(=O)O)c3ccccc3)c2c1 < 0.1 µM
18) Cn1cc(-c2ccc3[nH]c(=O)cc(NCc4cccc(Cl)c4)c3c2)cn1 < 0.1 µM
19) Cc1noc(C)c1-c1ccc2[nH]c(=O)cc(NCc3ccccc3)c2c1 < 0.1 µM
